- Test system: MKN45
- procedureSummary: Inhibition of cell viability (MTS), MKN45
- Assay type: cell-based
- settings: Homo sapiens, MKN-45, 96 h, MKN45 cells, 96 hours incubation
EC50: recorded values
measurementName: EC50

• CN(C)c1cccc(-c2ccc3nnc(C(F)(F)c4ccc5nc(NC(=O)C6CC6)cn5n4)n3c2)c1 [Compound 96] = < 30 nM
• O=C(Nc1cn2nc(C(F)(F)c3nnc4ccc(-c5cn[nH]c5)cn34)ccc2n1)C1CC1 [Compound 92] = < 30 nM
• CN(C)C(=O)Cn1cc(-c2ccc3nnc(Sc4ccc5nc(NC(=O)C6CC6)cn5n4)n3c2)cn1 [Compound 30] = > 630 nM
• CNC(=O)c1ccc(-c2ccc3nnc(C(C)c4ccc5nc(NC(=O)C6CC6)cn5n4)n3c2)cc1F (stereo not shown) [Compound 58] = < 30 nM

The reported measurements were obtained from patent US8178534B2.
